System: HCI09 (cells of a triple-negative luminal androgen receptor type breast cancer xenograft);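 further: PDX cells carrying CMV promoter-driven luciferase, viability read as total photon flux per second by IVIS imaging following D-luciferin, vehicle control 0.1% DMSO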
procedureSummary: cell viability (% of vehicle); higher = less cytotoxic
runParameters: 10 µM; 72 h
Response field label takes t when cell viability is strictly below 100 and f in all other cases.

Cc1[nH]c(=O)c(C#N)cc1-c1ccncc1 [Milrinone] : t
CN(C)c1ccc(O)c2c1CC1CC3C(N(C)C)C(=O)C(C(N)=O)=C(O)C3(O)C(=O)C1=C2O.Cl (centres undefined) [Minocycline HCl] : t
Cl.N=C(N)N [Guanidine HCl] : t
CCOC(=O)c1ccc(C#Cc2ccc3c(c2)C(C)(C)CCS3)nc1 [Tazarotene] : f
CC12CCC3c4ccc(O)cc4CCC3C1CCC2OC(=O)CCC1CCCC1 (centres undefined) [Estradiol Cypionate] : t
Nc1nc(Cl)nc2c1ncn2C1CC(O)C(CO)O1 (centres undefined) [Cladribine] : t
CC1CCN(C(=O)CC#N)CC1N(C)c1ncnc2[nH]ccc12 (centres undefined) : t
COc1cc2nc(N(C)CCCNC(=O)C3CCCO3)nc(N)c2cc1OC.Cl (centres undefined) [Alfuzosin HCl] : f
NS(=O)(=O)NCC/N=C1\NON\C1=C(\N=O)Nc1ccc(F)c(Br)c1 : t
